# study-target: human full-length MKNK1 (Homo sapiens, UniProt Q9BUB5, T385D)
# Construct: GST (N); purchased Carna Biosciences 02-145; host or cells: insect cells (baculovirus expression system)
# Sequence (Q9BUB5 1-424 isoform Q9BUB5-2 T344D): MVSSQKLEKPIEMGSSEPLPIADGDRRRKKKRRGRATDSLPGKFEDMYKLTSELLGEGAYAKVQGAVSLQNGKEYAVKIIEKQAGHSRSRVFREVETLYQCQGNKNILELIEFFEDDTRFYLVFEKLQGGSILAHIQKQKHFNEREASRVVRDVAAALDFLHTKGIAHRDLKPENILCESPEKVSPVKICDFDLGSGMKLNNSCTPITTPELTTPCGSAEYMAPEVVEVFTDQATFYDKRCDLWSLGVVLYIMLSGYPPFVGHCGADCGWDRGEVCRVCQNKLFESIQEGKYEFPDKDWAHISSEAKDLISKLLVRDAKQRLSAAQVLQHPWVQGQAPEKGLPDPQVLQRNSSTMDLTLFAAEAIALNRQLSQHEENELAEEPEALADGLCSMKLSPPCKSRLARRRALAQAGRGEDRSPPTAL
# experiment-summary: MKNK1 kinase high ATP assay (TR-FRET)
# Type: biochemical
# condition-summary: TR-FRET, high ATP (2 mM final), 15 min preincubation with enzyme, GST-MKNK1 (T344D); read-out: MKNK1 IC50
Returns: string. Value is MET if measured IC50 is below 9 nM, and NOT MET if it is greater than or equal to it.

>>> answer_label("CN(C)CCN(C)C1CCN(C(=O)[C@H]2CCc3c(sc4ncnc(Nc5ccc6nnsc6c5)c34)C2)CC1")
"MET"
>>> answer_label("CN(CC(F)F)C(=O)[C@H]1CCc2c(sc3ncnc(Nc4ccc5nnsc5c4)c23)C1")
"NOT MET"
>>> answer_label("COc1cc2nnsc2cc1Nc1ncnc2sc3c(c12)CC[C@H](C(=O)N1CC(C#N)C1)C3")
"MET"
>>> answer_label("COc1cc2nnsc2cc1Nc1ncnc2sc3c(c12)CC[C@H](C(=O)N1CC(C)(O)C1)C3")
"MET"

====

The following compounds are shown together with reported IC50 values.
# study-target: human full-length MKNK1 (Homo sapiens, UniProt Q9BUB5, T385D)
# Construct: GST (N); purchased Carna Biosciences 02-145; host or cells: insect cells (baculovirus expression system)
# experiment-summary: MKNK1 kinase high ATP assay (TR-FRET)
# Format: biochemical
# condition-summary: TR-FRET, high ATP (2 mM final), 15 min preincubation with enzyme, GST-MKNK1 (T344D); read-out: MKNK1 IC50
reported-metric: IC50 (nM)

>>> meas_value("COc1cc2nnsc2cc1Nc1ncnc2sc3c(c12)CC[C@H](C(=O)N(C)CC(C)(C)O)C3")
0.8
>>> meas_value("COc1cc2nnsc2cc1Nc1ncnc2sc3c(c12)CC[C@H](C(=O)N1C[C@@H]2C[C@H]1CN2C)C3")
3.8
>>> meas_value("CCN(CCN(C)C)C(=O)[C@H]1CCc2c(sc3ncnc(Nc4cc5snnc5cc4OC)c23)C1")
8.9
>>> meas_value("CN(CCNC(=O)OC(C)(C)C)C(=O)[C@H]1CCc2c(sc3ncnc(Nc4ccc5nnsc5c4)c23)C1")
14
>>> meas_value("COc1cc2nnsc2cc1Nc1ncnc2sc3c(c12)CC[C@H](C(=O)N1CC[C@H](N(C)C)C1)C3")
3.3
>>> meas_value("O=C([C@H]1CCc2c(sc3ncnc(Nc4ccc5nnsc5c4)c23)C1)N1CC(O)C1")
33
>>> meas_value("C[C@H]1CN(C(=O)[C@H]2CCc3c(sc4ncnc(Nc5ccc6nnsc6c5)c34)C2)C[C@H](C)O1")
5

====

Reported values of pIC50 for individual entries
# study-target: human full-length MKNK1 (Homo sapiens, UniProt Q9BUB5, T385D)
# Construct: GST (N); purchased Carna Biosciences 02-145; host or cells: insect cells (baculovirus expression system)
# experiment-summary: MKNK1 kinase high ATP assay (TR-FRET)
# Format: biochemical
# condition-summary: TR-FRET, high ATP (2 mM final), 15 min preincubation with enzyme, GST-MKNK1 (T344D); read-out: MKNK1 IC50
# Method: MKNK1 Kinase High ATP Assay MKNK1-inhibitory activity at high ATP of compounds of the present invention after their preincubation with MKNK1 was quantified employing the TR-FRET-based MKNK1 high ATP assay as described in the following paragraphs. […]
pIC50: −log10 of the molar value.
reported-metric: pIC50

>>> meas_value("CC1(O)CN(C(=O)[C@H]2CCc3c(sc4ncnc(Nc5ccc6nnsc6c5)c34)C2)C1 [Example 33]")
8.10
>>> meas_value("O=C([C@H]1CCc2c(sc3ncnc(Nc4ccc5nnsc5c4)c23)C1)N1CCC(F)(F)C1 [Example 17]")
7.96
>>> meas_value("C[C@@H]1COCCN1C(=O)[C@H]1CCc2c(sc3ncnc(Nc4ccc5nnsc5c4)c23)C1 [Example 4]")
7.96
>>> meas_value("C[C@H]1COCCN1C(=O)[C@H]1CCc2c(sc3ncnc(Nc4ccc5nnsc5c4)c23)C1 [Example 5]")
7.92
>>> meas_value("CN(C)CCN1CCN(C(=O)[C@H]2CCc3c(sc4ncnc(Nc5ccc6nnsc6c5)c34)C2)CC1 [Example 12]")
8.19
>>> meas_value("CN(C(=O)[C@H]1CCc2c(sc3ncnc(Nc4ccc5nnsc5c4)c23)C1)S(C)(=O)=O [Example 11]")
7.92
>>> meas_value("C[C@@H]1CN(C(=O)[C@H]2CCc3c(sc4ncnc(Nc5ccc6nnsc6c5)c34)C2)C[C@@H](C)O1 [Example 8]")
8.19
>>> meas_value("O=C([C@H]1CCc2c(sc3ncnc(Nc4ccc5nnsc5c4)c23)C1)N1C[C@@H]2C[C@H]1CO2 [Example 18]")
7.85
>>> meas_value("COc1cc2nnsc2cc1Nc1ncnc2sc3c(c12)CC[C@H](C(=O)N1CCC(N(C)C)CC1)C3 [Example 47]")
8.12
>>> meas_value("O=C([C@H]1CCc2c(sc3ncnc(Nc4ccc5nnsc5c4)c23)C1)N1CC2(COC2)C1 [Example 20]")
7.80
>>> meas_value("C[C@@H]1CN(C(=O)[C@H]2CCc3c(sc4ncnc(Nc5ccc6nnsc6c5)c34)C2)C[C@H](C)O1 [Example 3]")
7.89
>>> meas_value("COc1cc2nnsc2cc1Nc1ncnc2sc3c(c12)CC[C@H](C(=O)NCCC(F)(F)F)C3 [Example 56]")
8.14
>>> meas_value("COCCN(C)C(=O)[C@H]1CCc2c(sc3ncnc(Nc4ccc5nnsc5c4)c23)C1 [Example 2]")
8.03
>>> meas_value("CN(CC(C)(C)O)C(=O)[C@H]1CCc2c(sc3ncnc(Nc4ccc5nnsc5c4)c23)C1 [Example 27]")
7.82
>>> meas_value("CCN(CCO)C(=O)[C@H]1CCc2c(sc3ncnc(Nc4ccc5nnsc5c4)c23)C1 [Example 28]")
8.07
